# systemTested: ZNF721 full-length (Homo sapiens, UniProt Q8TF20-2 1-923)
# Sequence (Q8TF20 other isoform, or with tags, fused parts or gaps): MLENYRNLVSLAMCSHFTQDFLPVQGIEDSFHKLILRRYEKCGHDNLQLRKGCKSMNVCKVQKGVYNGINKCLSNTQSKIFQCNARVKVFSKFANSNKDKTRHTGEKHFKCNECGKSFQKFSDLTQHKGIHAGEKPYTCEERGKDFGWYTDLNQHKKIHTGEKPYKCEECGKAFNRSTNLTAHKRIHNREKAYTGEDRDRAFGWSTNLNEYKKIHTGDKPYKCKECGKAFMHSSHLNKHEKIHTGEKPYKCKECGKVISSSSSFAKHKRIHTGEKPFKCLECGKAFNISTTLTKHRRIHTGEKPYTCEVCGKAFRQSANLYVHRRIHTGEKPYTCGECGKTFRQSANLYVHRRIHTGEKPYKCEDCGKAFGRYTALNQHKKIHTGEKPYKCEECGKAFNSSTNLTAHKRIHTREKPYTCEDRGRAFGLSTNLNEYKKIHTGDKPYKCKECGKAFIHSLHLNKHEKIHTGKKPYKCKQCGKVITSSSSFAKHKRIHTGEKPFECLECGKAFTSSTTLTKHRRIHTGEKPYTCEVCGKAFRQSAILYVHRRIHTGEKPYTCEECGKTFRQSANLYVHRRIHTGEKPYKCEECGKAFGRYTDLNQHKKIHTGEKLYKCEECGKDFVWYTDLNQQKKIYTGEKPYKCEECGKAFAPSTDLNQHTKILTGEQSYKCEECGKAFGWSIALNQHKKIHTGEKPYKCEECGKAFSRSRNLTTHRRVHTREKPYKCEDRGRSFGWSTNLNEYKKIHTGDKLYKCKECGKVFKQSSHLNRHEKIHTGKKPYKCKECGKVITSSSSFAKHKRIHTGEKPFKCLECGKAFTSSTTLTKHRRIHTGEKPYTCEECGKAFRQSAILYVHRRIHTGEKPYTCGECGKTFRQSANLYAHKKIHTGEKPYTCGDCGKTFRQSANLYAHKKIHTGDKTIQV
# test: HT-SELEX; 20 mM HEPES pH 7, 140 mM KCl, 5 mM NaCl, 1 mM K2HPO4, 2 mM MgSO4, 100 uM EGTA, ZnSO4, 0.1% Tween20; room temperature, 1 h; high values mean tight binding
# measurementContext: protein: ivt; tags: eGFP (N-terminal); dsDNA, one strand shown
If the reported binding signal equals or exceeds 0.2 relative 10-mer count, assign MET. If not, assign NOT MET.

// below: answered sequences
AAGTGTATCC : MET
AGAAAACAGC : MET
GCCCACCACC : NOT MET
CGACCCCCCC : NOT MET
CACCACCCCA : MET

Decide: is the reported value of binding signal for "CACCCCCCAC" equal to or greater than 0.2 relative 10-mer count?
MET

Same question for "CCCCCCGCAC" please.
NOT MET

Same question for "CCACCCCACA" please.
NOT MET

Same question for "CCCCACCACG" please.
NOT MET

Same question for "CACCACCCCC" please.
MET

Same question for "GCACCACCCC" please.
NOT MET

* * *

# systemTested: ZNF721 DBD1 (Homo sapiens, UniProt Q8TF20-2 29-461)
# Sequence (Q8TF20 17-449): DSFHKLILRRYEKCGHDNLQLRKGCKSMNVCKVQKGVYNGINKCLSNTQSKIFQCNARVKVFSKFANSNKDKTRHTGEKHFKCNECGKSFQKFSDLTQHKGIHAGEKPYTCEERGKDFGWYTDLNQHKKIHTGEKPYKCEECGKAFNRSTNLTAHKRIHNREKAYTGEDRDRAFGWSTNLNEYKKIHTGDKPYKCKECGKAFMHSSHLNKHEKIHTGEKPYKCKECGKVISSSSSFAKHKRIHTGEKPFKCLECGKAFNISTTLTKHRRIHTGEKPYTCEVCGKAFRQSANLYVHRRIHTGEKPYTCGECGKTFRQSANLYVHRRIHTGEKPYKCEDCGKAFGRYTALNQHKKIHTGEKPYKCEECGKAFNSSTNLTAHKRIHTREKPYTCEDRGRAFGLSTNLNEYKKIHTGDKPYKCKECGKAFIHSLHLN
# test: HT-SELEX; 20 mM HEPES pH 7, 140 mM KCl, 5 mM NaCl, 1 mM K2HPO4, 2 mM MgSO4, 100 uM EGTA, ZnSO4, 0.1% Tween20; room temperature, 1 h; high values mean tight binding
# measurementContext: protein: ivt; tags: eGFP (N-terminal); dsDNA, one strand shown
observable: binding signal (relative 10-mer count)
One number for each entry, in relative 10-mer count.

Study these solved cases before continuing.
CACCGCCCCA : 0.00404
CACCCCACCG : 0.00459
GCCCCCACCC : 0.0083

# batch size: 6; output binding signal per entry
1. CCACCCCGAC
2. CCACCCCCTC
3. CCCTACCACC
4. AAAAGCAGTC
5. CCCTCACCAC
6. CCCCCGCCTC

[0.00404, 0.00982, 0.00578, 0.00225, 0.00482, 0.00509]

# batch size: 2; output binding signal per entry
1. CGACCCCCCC
2. CCCCCCGCCG

[0.00427, 0.00303]

* * *

# systemTested: ZNF721 DBD2 (Homo sapiens, UniProt Q8TF20-2 395-923)
# Sequence (Q8TF20 383-911): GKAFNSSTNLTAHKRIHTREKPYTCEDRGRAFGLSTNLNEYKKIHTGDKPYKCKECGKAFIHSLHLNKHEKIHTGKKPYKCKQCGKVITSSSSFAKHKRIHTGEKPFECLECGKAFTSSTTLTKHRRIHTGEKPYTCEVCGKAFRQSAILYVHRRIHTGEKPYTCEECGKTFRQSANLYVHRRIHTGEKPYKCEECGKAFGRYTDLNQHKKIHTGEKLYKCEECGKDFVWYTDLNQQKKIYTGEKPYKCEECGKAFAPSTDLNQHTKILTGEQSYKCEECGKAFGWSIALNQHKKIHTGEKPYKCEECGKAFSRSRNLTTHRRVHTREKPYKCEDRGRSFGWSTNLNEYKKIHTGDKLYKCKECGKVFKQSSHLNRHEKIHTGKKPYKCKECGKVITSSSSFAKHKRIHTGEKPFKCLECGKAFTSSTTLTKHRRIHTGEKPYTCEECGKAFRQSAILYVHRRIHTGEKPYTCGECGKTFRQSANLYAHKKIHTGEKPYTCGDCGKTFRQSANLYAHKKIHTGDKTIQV
# test: HT-SELEX; 20 mM HEPES pH 7, 140 mM KCl, 5 mM NaCl, 1 mM K2HPO4, 2 mM MgSO4, 100 uM EGTA, ZnSO4, 0.1% Tween20; room temperature, 1 h; high values mean tight binding
# measurementContext: protein: ivt; tags: eGFP (N-terminal); dsDNA, one strand shown
observable: binding signal
Number first, unit second.

Study these solved cases before continuing.
AGGGGGAGGG : 0.00515 relative 10-mer count
AAACAGCATC : 0.21 relative 10-mer count
CCAAAAAACA : 0.185 relative 10-mer count
CCACCATCCC : 0.00443 relative 10-mer count
AGGGTGGGTG : 0.00515 relative 10-mer count

# batch size: 3; output binding signal per entry
1. CGCCTCCCCC
2. CCACACCACC
3. CCCACCCAAC

0.00336 relative 10-mer count
0.00623 relative 10-mer count
0.0113 relative 10-mer count

# batch size: 4; output binding signal per entry
1. AAAAAAAACA
2. CACCCTACCC
3. CCCGCCTCCC
4. CCCCCCCACG

1: 0.252 relative 10-mer count; 2: 0.00491 relative 10-mer count; 3: 0.00156 relative 10-mer count; 4: 0.00443 relative 10-mer count

# batch size: 5; output binding signal per entry
1. GCCCACCCAC
2. GCCCGCCCCC
3. GCCCCTCCCC
4. CCCCTACCCC
5. CCCTCCCACC

1: 0.00983 relative 10-mer count; 2: 0.00132 relative 10-mer count; 3: 0.00551 relative 10-mer count; 4: 0.00384 relative 10-mer count; 5: 0.00755 relative 10-mer count

# batch size: 4; output binding signal per entry
1. AAAAAGCGTA
2. CACCACCCCG
3. AAACGAACAG
4. CGCTGTTTTA

1. 0.0266 relative 10-mer count
2. 0.00312 relative 10-mer count
3. 0.0771 relative 10-mer count
4. 0.174 relative 10-mer count
